- Tested on: Wolbachia pipientis
- Experimental protocol: Anti-Wolbachia Cell-Based Screen
- Format: functional
- Parameters: scale not given: in the data most compounds retested in dose-response had high values
- Settings: 5 µM
About 13,000 (27%) of roughly 48,000 compounds showed an effect of 50% or more. The list shows a part of the results.
Field: Percent Effect. Provide a value for each of the molecules that follow.
Give bare numbers, in %.

{"columns": ["Molecule", "Readout units", "Endpoint result"],
 "data": [
  ["COC(=O)CCN1CCCC1c1cccc2c1OCCO2 (stereo unspecified)", "%", 6.335],
  ["Cc1cccnc1C(Nc1nccc(C2CCCC2)n1)C1CC1 (stereo unspecified)", "%", -13.6],
  ["COc1ncc(-c2cc(NC3CCCC3)nc3[nH]ccc23)c(OC)n1", "%", 5.51],
  ["Cc1occc1CNC(=O)C1(C)CCCN(C(=O)c2ccccc2)C1 (stereo unspecified)", "%", 10.24],
  ["CC(c1ccccc1F)N(CC(N)=O)C1CC1 (stereo unspecified)", "%", 1.619]
]}

Respectfully, I request Percent Effect for each entry included below.
1. CC(C)NC(=O)N1CCN2C(=O)N(Cc3ccc(F)cc3)C[C@H]2C1
2. Cc1ccc2oc(C(=O)N3CCCC(c4noc(C)n4)C3)cc2n1 (stereo unspecified)
3. CN1CCN(C2CCN(C(=O)CCC3CCCC3)CC2)CC1.O=C(O)C(=O)O
4. CCN(CCC(F)(F)F)S(=O)(=O)c1cccc(F)c1C#N
5. COc1c(CNCc2cccc(Cn3cncn3)c2)c(C)nn1C
6. CC(C)(C)CC(=O)N1CC[C@@H](CC(=O)O)[C@@H](CCN2CCCCC2)C1
7. Cc1ccc(CNC(=O)CN(C)CC2CCN(CCO)CC2)s1

1.439
-6.015
6.776
-15.21
94.36
-5.604
-11.99

Take each entry in turn and give its Percent Effect.
1. Cc1cc(-c2cnc(NC3CCCC3)nc2-c2ccc(C)o2)on1
2. CCC(C)(C)n1nnnc1C(c1cccs1)N1CCc2ccccc2C1 (stereo unspecified)
3. Cc1ccc(C(CNCc2ncc[nH]2)N2CCOCC2)s1 (stereo unspecified)
4. COc1ccnc(N(C)Cc2ccccc2OC(F)(F)F)n1
5. CCn1cnnc1CNC(=O)NCC(c1cccs1)N1CCCC1 (stereo unspecified)

1. 122.4
2. 110.2
3. -41.63
4. -0.2691
5. -4.375

---

- Tested on: Wolbachia pipientis
- Experimental protocol: Anti-Wolbachia Cell-Based Screen
- Type: functional
- Design: scale not given: in the data most compounds retested in dose-response had high values
- Settings: 5 µM
The campaign covered roughly 48,000 compounds. About 13,000 (27%) showed an effect of 50% or more. The list shows a part of the results.
Reported property: Percent Effect (%)
Numbers only, in %.

Some solved cases for reference:
{"columns": ["Molecule", "Readout units", "Endpoint result"],
 "data": [
  ["Cc1ncc2c(n1)CN(CC(=O)Nc1nncs1)CC2", "%", 10.92],
  ["Cc1nnc(NC(=O)CN2CCCC(c3ccn[nH]3)C2)s1 (centres undefined)", "%", 8.304],
  ["Cc1noc(CCCC(=O)N2CCN(C)CC2c2ccccc2)n1 (centres undefined)", "%", 7.741]
]}

What value of measured Percent Effect is listed for `Cc1ncc2c(n1)CN(CC(=O)Nc1nccs1)CC2` ?
121.1

---

- Test system: Wolbachia pipientis
- Experimental protocol: Anti-Wolbachia Cell-Based Screen
- Format: functional
- Parameters: scale not given: in the data most compounds retested in dose-response had high values
- Settings: 5 µM
Out of some 48,000 compounds screened, about 13,000 (27%) showed an effect of 50% or more. The list shows a part of the results.
Task for the reader: assign each of the following molecules its reported Percent Effect.
Give bare numbers, in %.

{"columns": ["Molecule", "Assayed target", "Percent Effect, %"],
 "data": [
  ["CC(C)CC(NCc1cscn1)c1ccccn1 (stereo unspecified)", "Wolbachia pipientis", 95.9]
]}

Provide Percent Effect values for the following items, in order.
1. CC(NCc1cccc(C#N)c1)c1ccccn1.Cl (stereo unspecified)
2. COc1cc(C(C)NCc2cscn2)ccc1SC(F)F (stereo unspecified)
3. CC(C)N[C@@H]1CO[C@H](CNC(=O)c2ccccc2)[C@H]1O
4. CC(=O)N1CCC2(CCN(C(=O)c3ccc(Cl)c(C(F)(F)F)c3)CC2)C1

-10.04
-37.81
-5.064
-5.245

I'd like to know its Percent Effect. The molecule in question is `CC(C)Cc1nnc(NCc2ccsc2)o1`
-5.765

---

- Test system: Wolbachia pipientis
- Experimental protocol: Anti-Wolbachia Cell-Based Screen
- Type: functional
- Design: scale not given: in the data most compounds retested in dose-response had high values
- Settings: 5 µM
In all, about 48,000 compounds went through this assay and about 13,000 (27%) showed an effect of 50% or more. The list shows a part of the results.
Reported property: Percent Effect (%)
One number for each entry, in %.

See these solved cases before continuing.
{"columns": ["Compound", "Assayed target", "Percent Effect / %"],
 "data": [
  ["N#Cc1cccc(OCCCN2CCN(C(=O)c3ccoc3)CC2)c1", "Wolbachia pipientis", -11.27],
  ["O=C(CCc1ccc(Cl)s1)N1CCCC(n2cncn2)C1 (stereo unspecified)", "Wolbachia pipientis", 2.271],
  ["COc1cc(C)ccc1OCC(=O)Nc1ccnc(OCCN(C)C)c1", "Wolbachia pipientis", 10.45],
  ["CC(C)c1nnc2n1CCN(C(=O)CN1Cc3ccccc3C1=O)C2", "Wolbachia pipientis", -9.252],
  ["CCc1cnc(N)nc1N1CCN(C(C)=O)CC1", "Wolbachia pipientis", -3.404]
]}

Here are 8 compounds. What values of Percent Effect were reported for them?
1. O=C(c1ccc2c(c1)CCO2)N1CCN(c2ccc(Cl)cn2)CC1
2. Cc1nnc2n1CCN(C(=O)CN(C)Cc1ccccc1)C2
3. N#Cc1ccc(CC(=O)N2CCCC(n3cccn3)C2)cc1 (stereo unspecified)
4. O=C(CCc1ccsc1)N1CCCC(n2cncn2)C1 (stereo unspecified)
5. O=C(c1cccnc1-n1cncn1)N1CCN(CC(F)(F)F)CC1
6. CC(C#N)CN(C)Cc1c(Cl)ccc2cccnc12 (stereo unspecified)
7. COC(=O)CCNC(=O)c1cccc(C(=O)N(C)c2ccccc2)c1
8. Cc1nnc2n1CCN(C(=O)COCCOc1ccccc1)C2

[6.232, 125, 3.73, 119.5, -6.052, 4.156, 2.44, 6.355]

---

- Tested on: Wolbachia pipientis
- Experimental protocol: Anti-Wolbachia Cell-Based Screen
- Assay type: functional
- Parameters: scale not given: in the data most compounds retested in dose-response had high values
- Settings: 5 µM
About 13,000 (27%) of roughly 48,000 compounds showed an effect of 50% or more. Some of the results follow.
Reported property: Percent Effect (%)
One number for each entry, in %.

{"columns": ["Compound", "Percent Effect [%]"],
 "data": [
  ["COc1ccc(N2CCOCC3(CCCN(c4cnccn4)C3)C2)cc1 (stereo unspecified)", -9.239],
  ["FC(F)(F)c1ccc2[nH]c([C@H]3CCNC3)nc2c1", -0.9457],
  ["COc1ccc(-c2cnc(N)nc2C2CCCNC2)cc1.Cl (stereo unspecified)", 80.9],
  ["CNS(=O)(=O)c1ccccc1N1CCN(C(C)C(=O)OC)CC1 (stereo unspecified)", -10.15],
  ["CN(CC(=O)NC(Cc1ccsc1)c1cccnc1)Cc1cccnc1.Cl (stereo unspecified)", 75.58]
]}

Could you report Percent Effect for every entry in the following list?
1. Nc1ncc(-c2ccc(Cl)cc2)c(C2CCCNC2)n1 (stereo unspecified)
2. Cc1ccc(F)cc1S(=O)(=O)Nc1cnc(N2CCCC2)nc1

110.4
3.743

Fill in Percent Effect for each of the 4 compounds listed.
1. O=S(=O)(NCCn1cc(C2CCCNC2)nn1)c1ccc(Cl)cc1 (stereo unspecified)
2. CC(C)OCCN1CCC(Nc2nccnc2C#N)CC1
3. FC(F)(F)c1ccc(-c2c[nH]c([C@@H]3COCCN3)n2)cc1
4. COc1ccccc1S(=O)(=O)Nc1ccc2c(C(=O)O)c[nH]c2c1

[7.811, 120.8, -4.53, -5.607]

---

For each entry below, report its Percent Effect value.
- System: Wolbachia pipientis
- Experimental protocol: Anti-Wolbachia Cell-Based Screen
- Format: functional
- Parameters: scale not given: in the data most compounds retested in dose-response had high values
- Settings: 5 µM
The campaign covered roughly 48,000 compounds. About 13,000 (27%) showed an effect of 50% or more. The list shows a part of the results.
Numbers only, in %.

Worked cases, Percent Effect given:
{"columns": ["Molecule", "Assayed target", "Readout units", "Endpoint result"],
 "data": [
  ["CCN(CC)Cc1ccccc1NC(=O)N(C)Cc1ccc(OC)cc1", "Wolbachia pipientis", "%", -34.67],
  ["CCOc1cc(C(=O)N2CCCC(c3noc(C(C)C)n3)C2)ccn1 (stereo not drawn)", "Wolbachia pipientis", "%", 127.2],
  ["CCOc1cc(CNC(=O)NCc2nc(C)c(C)s2)ccn1", "Wolbachia pipientis", "%", -14.7],
  ["CC(C)c1nc(C2CCCN(C(=O)c3nccn4ccnc34)C2)no1 (stereo not drawn)", "Wolbachia pipientis", "%", 101.8]
]}

The following molecules each have a reported value; give each one's Percent Effect.
1. CO[C@@H]1CN(S(=O)(=O)c2cn(C)cn2)[C@@H]2CCCO[C@@H]21.O=C(O)C(F)(F)F
2. C[C@]1(O)CCN(Cc2cncs2)C[C@@H]1Oc1cccc(F)c1

7.147
4.149

I have 2 molecules here; please give me Percent Effect for each one.
1. COc1ncc(CN2CC[C@@](C)(O)[C@H](Oc3cccc(F)c3)C2)cn1
2. Cc1nnsc1C(=O)NCC1CCN(c2ccccn2)CC1

2.732
1.014

Take each entry in turn and give its Percent Effect.
1. O=C(O)c1cc2c(c(S(=O)(=O)N(CCCO)c3ccccc3)c1)CCC2
2. CC(C)(C)CC(=O)N1CSCC1C(=O)NCc1cccc(C#N)c1 (stereo not drawn)
3. OCCCNC1CCc2cc3c(cc21)OCCO3 (stereo not drawn)
4. CC(C)c1ocnc1C(=O)NC(c1nnc2n1CCNCC2)C(C)C (stereo not drawn)
5. CC1CS(=O)(=O)CCN1Cc1ccccc1N(C)C (stereo not drawn)
6. Cc1nn(C)c(Cl)c1C1CCCN1C(=O)c1ccc(O)nc1 (stereo not drawn)
7. CN1CC(=O)N(c2cccc(F)c2)CC12CCN(Cc1cncn1C)C2.O=C(O)C(F)(F)F.O=C(O)C(F)(F)F (stereo not drawn)
8. OCC1(CNC2CCc3cc4c(cc32)OCCO4)CC1 (stereo not drawn)

1. -6.874
2. -25.6
3. 0.5317
4. 15.04
5. -2.207
6. 94.29
7. -8.718
8. -8.17

Provide Percent Effect for all items below, preserving their order.
1. CCOc1ccc(CN2CC[C@@](C)(O)[C@@H](Cc3ccccc3)C2)cn1
2. Fc1ccc(OCc2nnc([C@H]3CCN(Cc4cccnc4)C3)o2)cc1
3. Cc1ncsc1C(=O)N1CCCC(c2noc(C(C)C)n2)C1 (stereo not drawn)
4. N[C@@H]1c2ccccc2C2(CCN(C(=O)c3ccc(CO)o3)CC2)[C@H]1O

[4.384, 16.65, -0.9065, 13.24]

Where do these numbers come from? They come from ChEMBL document CHEMBL3988442.
